Would you mind telling me the reported remaining at 4 h, 10 µM of each entry?
EXPERIMENT_SUMMARY: Peptide stability in simulated gastric fluid (SGF)
Format: in vitro ADME
EXPERIMENTAL_CONDITIONS: pig, simulated gastric fluid (SGF) with porcine pepsin (3.2 g/L), pH 1.2, 10 µM, 37 °C, porcine pepsin, pH 1.2, 4 h; read-out: SGF (% remaining 4 h)
Method: SGF was prepared by dissolving sodium chloride (0.2 g) in 50 mL of water. A volume of 0.7 mL of 10 M HCl was added to adjust the pH of the solution to 1.2 and the volume made up to 100 mL with water. […] SIF was prepared by dissolving monobasic potassium phosphate (0.68 g) in 50 mL of water and adjusting the pH to 6.8 with 1 M NaOH. […] The incubation was performed at 37 °C with gentle shaking. […] Percent remaining at each timepoint was calculated relative to timepoint zero based on absolute peak areas. […]
*1 amine or outer side, *2 acyl side, *3 side chain or, on linkers, in order; H or OH if unused. Where a SMILES comes first, the peptide text is derived from it. Bridges are numbered along the chain shown (N, C = ends). [ ]: non-standard residue; d: D form. 2Nal = N[C@@H](Cc1ccc2ccccc2c1)C(=O)O; AEF = NCCOc1ccc(C[C@H](N)C(=O)O)cc1; 3Pal = N[C@@H](Cc1cccnc1)C(=O)O; αMeL = CC(C)C[C@](C)(N)C(=O)O; CH2COCH2 = O=C(C[*:1])C[*:2]; 3Amb = NCc1cccc(C(=O)O)c1; Dab = NCC[C@H](N)C(=O)O
Numbers only, in %.

// solved cases for remaining at 4 h, 10 µM follow
CNC(=O)[C@H](Cc1cccnc1)NC(=O)[C@H](CCN)NC(=O)[C@@H]1CCC(=O)NCCCC[C@@H]2NC(=O)CC[C@H](NC(=O)[C@H](CCC(N)=O)NC(=O)[C@H](Cc3c[nH]c4ccccc34)NC2=O)C(=O)N[C@@H](Cc2ccc(OCCN)cc2)C(=O)N[C@@H](Cc2ccc3ccccc3c2)C(=O)N[C@@](C)(CC(C)C)C(=O)N1 [Compound 43] (KWQE[AEF][2Nal][αMeL]E[Dab][3Pal]-NHMe; lactam 1-8, N-4) ... 108
CC[C@H](C)[C@@H]1NC(=O)[C@@H]2CCCCNC(=O)CC[C@@H](C(=O)N3CCNC3C(=O)N[C@@H](Cc3cccnc3)C(=O)NC)NC(=O)[C@](C)(CC(C)C)NC(=O)[C@H](Cc3ccc4ccccc4c3)NC(=O)[C@H](Cc3ccc(OCCN)cc3)NC(=O)[C@H](CCC(=O)N2)NC(=O)[C@H](CCC(N)=O)NC(=O)[C@H](Cc2c[nH]c3ccccc23)NC(=O)[C@H](C(C)C)NC1=O (some centres unmarked) ... 107
CC(C)C[C@]1(C)NC(=O)[C@H](Cc2ccc3ccccc3c2)NC(=O)[C@H](Cc2ccc(OCCN)cc2)NC(=O)[C@@H]2CSCC(=O)CSC[C@H](NC(=O)[C@H](CO)NC(=O)c3cccc(c3)CNC(=O)CC[C@@H](C(=O)N[C@H](CCCNC(=N)N)C(N)=O)NC1=O)C(=O)N[C@@H](Cc1c[nH]c3ccccc13)C(=O)N[C@@H](CCC(N)=O)C(=O)N2 [Ref 41, reference compound] ([3Amb]SCWQC[AEF][2Nal][αMeL]E[dR]-NH2; linker 3-6 via CH2COCH2; lactam N-10) ... 87
CNC(=O)[C@H](Cc1cccnc1)NC(=O)[C@H](Cc1cnc[nH]1)NC(=O)[C@@H]1CCC(=O)NCCCC[C@@H]2NC(=O)CC[C@H](NC(=O)[C@H](CCC(N)=O)NC(=O)[C@H](Cc3c[nH]c4ccccc34)NC(=O)CCNC2=O)C(=O)N[C@@H](Cc2ccc(OCCN)cc2)C(=O)N[C@@H](Cc2ccc3ccccc3c2)C(=O)N[C@@](C)(CC(C)C)C(=O)N1 ... 111
CC[C@H](C)[C@@H]1NC(=O)[C@@H]2CCCCNC(=O)CC[C@@H](C(=O)N[C@@H](CCN)C(=O)N[C@@H](Cc3cccnc3)C(=O)NC)NC(=O)[C@](C)(CC(C)C)NC(=O)[C@H](Cc3ccc4ccccc4c3)NC(=O)[C@H](Cc3ccc(OCCN)cc3)NC(=O)[C@H](CCC(=O)N2C)NC(=O)[C@H](CCC(N)=O)NC(=O)[C@H](Cc2c[nH]c3ccccc23)NC(=O)[C@H](C(C)C)NC1=O ... 92

The following compounds each have a reported value; give each one's remaining at 4 h, 10 µM.
1. CC(=O)N[C@@H](CC(=O)O)C(=O)N[C@H]1CCC(=O)NCCCC[C@@H](C(=O)N[C@@H](CCCNC(=N)N)C(N)=O)NC(=O)[C@H](CC(C)C)NC(=O)[C@H](Cc2ccc3ccccc3c2)NC(=O)[C@H](Cc2c[nH]c3ccccc23)NC(=O)[C@@H]2CSCC(=O)CSC[C@H](NC(=O)[C@H](CO)NC1=O)C(=O)N[C@@H](Cc1c[nH]c3ccccc13)C(=O)N[C@@H](CCC(N)=O)C(=O)N2 [Ref 17, reference compound]
2. COc1ccc(C[C@@H]2NC(=O)[C@@H]3CCC(=O)N[C@@H](CCCCNC(=O)CC[C@@H](C(=O)N[C@@H](CCCCNC(=O)c4cccnc4)C(N)=O)NC(=O)[C@](C)(CC(C)C)NC(=O)[C@H](Cc4ccc5ccccc5c4)NC2=O)C(=O)N[C@@H]([C@@H](C)O)C(=O)N[C@@H](C(C)C)C(=O)N[C@@H](Cc2c[nH]c4ccccc24)C(=O)N[C@@H](CCC(N)=O)C(=O)N3)cc1
3. CC[C@H](C)[C@@H]1NC(=O)[C@@H]2CCCCNC(=O)CC[C@@H](C(=O)N[C@@H](Cc3cnc[nH]3)C(=O)N[C@@H](Cc3cccnc3)C(=O)NC)NC(=O)[C@](C)(CC(C)C)NC(=O)[C@H](Cc3ccc4ccccc4c3)NC(=O)[C@H](Cc3ccc(OCCN)cc3)NC(=O)[C@H](CCC(=O)N2)NC(=O)[C@H](CCC(N)=O)NC(=O)[C@H](Cc2c[nH]c3ccccc23)NC(=O)[C@H](C(C)C)NC1=O

[A]
0
8
102

Cited source: patent EP4471048A1
